B1: ANKRD17 (parent)
chain: EVLRRLTSSVSCALDEAAAALTRM

Variants of: B1
experimental-protocol: protein stability index of a GFP-peptide fusion (GPS, HEK-293T) (PSI 1-6); higher = more stable;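 further: lentivirally expressed fusions sorted by FACS into six bins by GFP to DsRed ratio, PSI derived from sequencing read proportions per bin multiplied by bin number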
condition-parameters: c terminus: a fixed tail appended
measurement-kind: protein stability index
Keep the answer to the number alone.

// protein stability index lookup, variant = `EVLRRLTSSKSCALDEAAAALTRM` , result: 2.15

// protein stability index lookup, variant = `EVLRRLTSSVSCALDEAAAAMTRM` , result: 1.5

// protein stability index lookup, variant = `EVLRRNTSSVSCALDEAAAALTRM` , result: 2.07

// protein stability index lookup, variant = `EVLRRLGSSVSCALDEAAAALTRM` , result: 2.27

// protein stability index lookup, variant = `EVLRRLTWSVSCALDEAAAALTRM` , result: 3.21

// protein stability index lookup, variant = `EVLRRLTSSVSCFLDEAAAALTRM` , result: 2.2

// protein stability index lookup, variant = `EVLRRLTSSSSCALDEAAAALTRM` , result: 1.83

// protein stability index lookup, variant = `EVLRRLQSSVSCALDEAAAALTRM` , result: 2.6

// protein stability index lookup, variant = `EVLRRLTSSVPCALDEAAAALTRM` , result: 2.79

// protein stability index lookup, variant = `EVLRRLTSSVSCALDEIAAALTRM` , result: 2.26

// protein stability index lookup, variant = `EVLGRLTSSVSCALDEAAAALTRM` , result: 2.19

// protein stability index lookup, variant = `EVLRRLTYSVSCALDEAAAALTRM` , result: 1.99

// protein stability index lookup, variant = `EVLRTLTSSVSCALDEAAAALTRM` , result: 1

// protein stability index lookup, variant = `EVLRRLTHSVSCALDEAAAALTRM` , result: 2.09

// protein stability index lookup, variant = `EVLRRLTSSVSCALDEAAVALTRM` , result: 2.99

// protein stability index lookup, variant = `EVLRRLTSSVSCALDCAAAALTRM` , result: 2.46

// protein stability index lookup, variant = `EVLRRLRSSVSCALDEAAAALTRM` , result: 3

// protein stability index lookup, variant = `EALRRLTSSVSCALDEAAAALTRM` , result: 2.96

// protein stability index lookup, variant = `EVLRRLTSSYSCALDEAAAALTRM` , result: 1.65

// protein stability index lookup, variant = `ESLRRLTSSVSCALDEAAAALTRM` , result: 2.59

// protein stability index lookup, variant = `EVLRRLTSSVSVALDEAAAALTRM` , result: 2.48

// protein stability index lookup, variant = `EVLRRLTSSVSCALDEAAAALTGM` , result: 2.35

// protein stability index lookup, variant = `EVLRRLTSSVSCALDEAAIALTRM` , result: 1.88

// protein stability index lookup, variant = `EVLRRLTSSVSCALDEAAAALTEM` , result: 2.64

// protein stability index lookup, variant = `EVLRRLTSSVSNALDEAAAALTRM` , result: 3.93

// protein stability index lookup, variant = `EVLRRLTDSVSCALDEAAAALTRM` , result: 2.25

// protein stability index lookup, variant = `EVLIRLTSSVSCALDEAAAALTRM` , result: 1.04

// protein stability index lookup, variant = `EVLRRLTSSVSCALDEAAAWLTRM` , result: 2.48

// protein stability index lookup, variant = `EVLRRLTSSVSCALDEAHAALTRM` , result: 1.68

// protein stability index lookup, variant = `EVLRRLTSSVSCALDEAAAALRRM` , result: 1.31

// protein stability index lookup, variant = `EVLRRLTSSVSCALDEAANALTRM` , result: 2.55

// protein stability index lookup, variant = `EVLRRLTNSVSCALDEAAAALTRM` , result: 2.49

// protein stability index lookup, variant = `ERLRRLTSSVSCALDEAAAALTRM` , result: 2.6

// protein stability index lookup, variant = `EVLRRLTSSVSCALDEAAAALNRM` , result: 1.93

// protein stability index lookup, variant = `EVLRRLTSSASCALDEAAAALTRM` , result: 3.08

// protein stability index lookup, variant = `EVLRRLTSSVSCQLDEAAAALTRM` , result: 1.59

// protein stability index lookup, variant = `EVLRRLTSSVSCALDEVAAALTRM` , result: 2.32

// protein stability index lookup, variant = `EVLRRLTSSVSCALDEAAAALTIM` , result: 1.92

// protein stability index lookup, variant = `EVLRRLTSIVSCALDEAAAALTRM` , result: 1.97

// protein stability index lookup, variant = `EVLRRLTSSVSCALDEAAAALTNM` , result: 1.35

// protein stability index lookup, variant = `EVLRRSTSSVSCALDEAAAALTRM` , result: 1.73

// protein stability index lookup, variant = `EVLRRLTSSVSCALDEAAAAVTRM` , result: 2.04

// protein stability index lookup, variant = `EVLYRLTSSVSCALDEAAAALTRM` , result: 2.34

// protein stability index lookup, variant = `EVLRRLTSSVSCHLDEAAAALTRM` , result: 2.42

// protein stability index lookup, variant = `EVLRRLTSSVSCALDVAAAALTRM` , result: 1.6

// protein stability index lookup, variant = `EVLRRYTSSVSCALDEAAAALTRM` , result: 2.28

// protein stability index lookup, variant = `EVLRRLTSSVSCALDEAAAALHRM` , result: 3.03

// protein stability index lookup, variant = `EVLRRLTSSVSCALDEAAYALTRM` , result: 2.92

// protein stability index lookup, variant = `EVLRRLTSSCSCALDEAAAALTRM` , result: 1.98

// protein stability index lookup, variant = `EVLRRLTSSVSCALDEAAAALIRM` , result: 2.36

// protein stability index lookup, variant = `EVLRRLTSDVSCALDEAAAALTRM` , result: 1.65

// protein stability index lookup, variant = `EVLRMLTSSVSCALDEAAAALTRM` , result: 2.05

// protein stability index lookup, variant = `EVLRRLTPSVSCALDEAAAALTRM` , result: 1.73

// protein stability index lookup, variant = `ELLRRLTSSVSCALDEAAAALTRM` , result: 2.35

// protein stability index lookup, variant = `EVLRRLTSSVSCALDEAAAYLTRM` , result: 3.13

// protein stability index lookup, variant = `EVLRRLTSSVSCALREAAAALTRM` , result: 1.85

// protein stability index lookup, variant = `EVLRRLTSSVSCALDEAAAALTRH` , result: 2.49

// protein stability index lookup, variant = `EVLRRLTSSVSCALDEAAAALTRF` , result: 2.44

// protein stability index lookup, variant = `EVLRRLTSSVSCALDEAAAALPRM` , result: 2.33
